tested on: H3N2 strain; assay: Antiviral activity against Influenza H3N2 strain in MDCK cells; type: cell-based; settings: Influenza A virus, at 20 μM concentration, 4-6 hours pre-incubation, read-out: H3N2 strain (MDCK cells) VTR (virus titer reduction)
Listed next: entries and their corresponding log reduction at 20 µM.
Enter the number alone.

As a guide, the following entries are already answered.
- Compound: "CC(C)OC(=O)[C@H](C)NP(=O)(OC[C@H]1O[C@@H](n2ncc(=O)[nH]c2=O)[C@H](O)[C@@H]1O)Oc1ccccc1 (mixture of isomers)"
  log reduction at 20 µM: -0.1
- Compound: "N[C@@H](Cc1ccccc1)C(=O)OC[C@H]1O[C@@H](n2ncc(=O)[nH]c2=O)[C@H](O)[C@@H]1O"
  log reduction at 20 µM: 3.4
- Compound: "CCOC(=O)[C@H](C)NP(=O)(OC[C@H]1O[C@@H](n2ncc(=O)[nH]c2=O)[C@H](O)[C@@H]1O)Oc1ccccc1 (mixture of isomers)"
  log reduction at 20 µM: 0.2
- Compound: "C[C@H](NP(=O)(OC[C@H]1O[C@@H](n2ncc(=O)[nH]c2=O)[C@H](O)[C@@H]1O)Oc1ccccc1)C(=O)OCc1ccc([N+](=O)[O-])o1 (mixture of isomers)"
  log reduction at 20 µM: 0.6
- Compound: "CCCC(=O)Nc1cnn([C@@H]2O[C@H](CO)[C@@H](O)[C@H]2O)c(=O)n1"
  log reduction at 20 µM: 2.7

Problem: Entry `CCCCCCCCCCCCCCCCCC(=O)OC[C@H]1O[C@@H](n2ncc(=O)[nH]c2=O)[C@H](O)[C@@H]1O` , system H3N2 strain: what log reduction at 20 µM was measured?
Result: 3

Problem: # returns recorded log reduction at 20 µM (system: H3N2 strain) for CC(C)[C@@H](N)C(=O)OC[C@H]1O[C@@H](n2ncc(=O)[nH]c2=O)C(O)[C@H]1O (stereo partly shown)
Result: 3.4

Problem: Observed log reduction at 20 µM on H3N2 strain for COC(=O)[C@H](C)NP(=O)(OC[C@H]1O[C@@H](n2ncc(=O)[nH]c2=O)[C@H](O)[C@@H]1O)Oc1ccccc1 (mixture of isomers) , please.
Result: 1.6

Problem: Given the entry `CC(C)COC(=O)[C@H](C)N[P@](=O)(OC[C@H]1O[C@@H](n2ncc(=O)[nH]c2=O)[C@H](O)[C@@H]1O)Oc1cccc2ccccc12` , what log reduction at 20 µM was observed with H3N2 strain?
Result: 1.6

Problem: # returns recorded log reduction at 20 µM (system: H3N2 strain) for `CCCCCOC(=O)Nc1cnn([C@@H]2O[C@H](CO)[C@@H](O)[C@H]2O)c(=O)n1`
Result: 1.6

Problem: What is its log reduction at 20 µM for H3N2 strain? Entry: CC[C@H](C)[C@@H](N)C(=O)OC[C@H]1O[C@@H](n2ncc(=O)[nH]c2=O)C(O)C1O (stereo partly shown)
Result: 2.8

Problem: So what log reduction at 20 µM did `CCCCCCCCCCCC(=O)Nc1cnn([C@@H]2O[C@H](CO)[C@@H](O)[C@H]2O)c(=O)n1` get with H3N2 strain?
Result: 3.3

Problem: Query for H3N2 strain: what log reduction at 20 µM does the record show for CC(C)COC(=O)[C@H](C)NP(=O)(OC[C@H]1O[C@@H](n2ncc(=O)[nH]c2=O)C(O)[C@H]1O)Oc1ccccc1 (stereo in doubt) ?
Result: 1.3

###

tested on: ZIKA; assay: Antiviral activity against ZIKA in HEK 293 cells; format: cell-based; conditions: Zika virus, HEK293, read-out: ZIKA (HEK 293 cells) VTR (virus titer reduction)
Reported log reduction at 10 µM by item:
// return just the number, without any unit appended

For orientation, consider the following solved cases.
- Compound: "C[C@H](NP(=O)(OC[C@H]1O[C@@H](n2ncc(=O)[nH]c2=O)[C@H](O)[C@@H]1O)Oc1ccccc1)C(=O)OCc1ccc([N+](=O)[O-])o1 (mixture of isomers)"
  log reduction at 10 µM: 2.2
- Compound: "CC[C@H](C)[C@H](N)C(=O)OC[C@H]1O[C@@H](n2ncc(=O)[nH]c2=O)[C@H](O)[C@@H]1O"
  log reduction at 10 µM: 3.1

// next entry
Problem: Entry `O=C(Nc1cnn([C@@H]2O[C@H](CO)[C@@H](O)[C@H]2O)c(=O)n1)C1CCC1` has what log reduction at 10 µM?
Result: 2.6

###

Catalogue of CC50 values
Assay: Cytotoxicity (CC50) in HEK293 cells
Assay type: cell-based
Conditions: human, WNV
Protocol: As used herein, “CC50” is intended to refer to the concentration of a substance (e.g., a compound or a drug) that is required for 50% reduction of cell viability. […] The antiviral activity against Alpharviruses evaluated in HEK293 cells (4 hours pre-incubation with compound before infected with virus) is shown in Table 2 below. […] NT: not tested, ND: not determined
Please respond with the number in µM and leave the unit unwritten.

- Compound string: "CCCC(CCC)C(=O)Nc1cnn([C@@H]2O[C@H](CO)[C@@H](O)[C@H]2O)c(=O)n1"
  Experimental endpoint: "CC50"
  Measured value: 30.8
- Compound string: "CCOC(=O)Nc1cnn([C@@H]2O[C@H](CO)[C@@H](O)[C@H]2O)c(=O)n1"
  Experimental endpoint: "CC50"
  Measured value: 22.4

Problem: Given the compound `CCCCCCCCCCCCCCCCCC(=O)OC[C@H]1O[C@@H](n2ncc(=O)[nH]c2=O)[C@H](O)[C@@H]1O` , what is its reported CC50?
Result: 0.97
